# credit: patent US5374772A

Quick reference for inhibition at 10 µM among some compounds
study-target: HSF-PLA2 (extracellular PLA2 obtained from human synovial fluid) (Homo sapiens, UniProt P14555)
Construct: extracellular enzyme obtained from human synovial fluid; from tissue; host or cells: pooled human synovial fluid (0.1% v/v in the assay)
Sequence (P14555 21-144): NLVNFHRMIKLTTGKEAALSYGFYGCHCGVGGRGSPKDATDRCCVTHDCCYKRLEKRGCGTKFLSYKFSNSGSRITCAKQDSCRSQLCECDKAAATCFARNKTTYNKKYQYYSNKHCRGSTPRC
measurement-description: Assay for Inhibition of HSF-PLA2 In Vitro
Assay type: biochemical
condition-summary: 10 μM; read-out: % Inhib of HSF-PLA2
observable: inhibition at 10 µM (%)

> print(dat)
                                smiles.code  endpoint.unit  assay.result
1  CCCCCCCCCCCCCCOc1cc(OCCCCCCc2cccc(O)c2O)cc(C(=O)O)c1              %            88
2  CCCCCCCCCCCCCCCCCCOc1cccc(C(=O)O)c1OCCCOc1ccc(O)cc1              %            93
3  CCCCCCCCCCCCCCCCCCOc1ccc(OCCCOc2ccc(O)cc2)c(C(=O)O)c1              %            93
4  CCCCCCCCCCCCCCCCCCOc1cc(OCCCOc2ccccc2O)cc(C(=O)O)c1              %            91
5  CCCCCCCCCCCCCCCCCCOc1cc(OCCCCCCOc2ccc(O)cc2)cc(C(=O)O)c1              %            94

* * *

Each record here notes measured % Inhib of myeloperoxidase in the TPA mouse ear test.
Test system: myeloperoxidase (MPO) activity, indicator of neutrophil infiltration
measurement-description: TPA mouse ear test, myeloperoxidase activity in ear punches
Assay type: in vivo, male CD-1 mice
condition-summary: 0.3 mg topically
observable: % Inhib of myeloperoxidase in the TPA mouse ear test (%)

> print(dat)
                                smiles.code  endpoint.unit  assay.result
1  CCCCCCCCCCCCCCOc1cc(OCCCCCCc2cccc(O)c2O)cc(C(=O)O)c1              %            61
2  CCCCCCCCCCCCCCCCCCOc1cc(OCCCCCCc2cccc(O)c2O)cc(C(=O)O)c1              %            94
3  CCCCCCCCCCOc1cc(OCCCCCCc2cccc(O)c2O)cc(C(=O)O)c1              %            89
4  CCCCCCCCCCCCCCCCCCOc1cccc(C(=O)O)c1OCCCOc1ccc(O)cc1              %            62
5  CCCCCCCCCCCCCCCCCCOc1cc(OCCCOc2ccc(O)cc2)cc(C(=O)O)c1              %            70
6  CCCCCCCCCCOc1cc(OCCCOc2ccc(O)cc2)cc(C(=O)O)c1              %            72

* * *

study-target: HSF-PLA2 (extracellular PLA2 obtained from human synovial fluid) (Homo sapiens)
Construct: extracellular enzyme obtained from human synovial fluid; from tissue; host or cells: pooled human synovial fluid (0.1% v/v in the assay)
measurement-description: Assay for Inhibition of HSF-PLA2 In Vitro
Assay type: biochemical
condition-summary: 10 μM; read-out: % Inhib of HSF-PLA2
List of inhibition at 10 µM values.
observable: inhibition at 10 µM (%)

> print(dat)
                                   molecule                              study.target  assay.result
1  CCCCCCCCCCCCCCCCCCOc1ccc(C(=O)O)c(OCCCOc2ccc(OCc3ccccc3)cc2)c1 [Example 53]  HSF-PLA2 (extracellular PLA2 obtained from human synovial fluid) (Homo sapiens)            55
2  O=C(O)c1cc(OCCCOc2ccc(OCc3ccccc3)cc2)cc(OCCCOc2ccc(OCc3ccccc3)cc2)c1 [Example 41]  HSF-PLA2 (extracellular PLA2 obtained from human synovial fluid) (Homo sapiens)            54
3  CCCCCCCCCCCCCCOc1cc(OCCCCCCc2cccc(O)c2O)cc(C(=O)OC)c1 [Example 61]  HSF-PLA2 (extracellular PLA2 obtained from human synovial fluid) (Homo sapiens)            17
4  O=C(O)c1cc(OCCOc2cccc3ccccc23)cc(OCCOc2cccc3ccccc23)c1 [Example 8A]  HSF-PLA2 (extracellular PLA2 obtained from human synovial fluid) (Homo sapiens)            67
5  CCCCCCCCCCCCCCCCCCOc1cc(OCCCOc2ccc(S(C)(=O)=O)cc2)cc(C(=O)O)c1 [Example 26]  HSF-PLA2 (extracellular PLA2 obtained from human synovial fluid) (Homo sapiens)            86
6  CCCCCCCCCCCCCCCCCCOc1cc(OCCOc2ccc3ccccc3c2)cc(C(=O)O)c1 [Example 15]  HSF-PLA2 (extracellular PLA2 obtained from human synovial fluid) (Homo sapiens)            77
7  CCCCCCCCCCCCCCOc1cc(OCCCOc2ccc(OCc3ccccc3)cc2)cc(C(=O)O)c1 [Example 36]  HSF-PLA2 (extracellular PLA2 obtained from human synovial fluid) (Homo sapiens)            87
8  CCCCCCCCCCCCCCCCCCOc1ccc(OCCCOc2ccc(OCc3ccccc3)cc2)c(C(=O)O)c1 [Example 49]  HSF-PLA2 (extracellular PLA2 obtained from human synovial fluid) (Homo sapiens)            79
